- TESTED_TARGET: SMARCA2 (Homo sapiens)
- Sequence (P51531 whole entry): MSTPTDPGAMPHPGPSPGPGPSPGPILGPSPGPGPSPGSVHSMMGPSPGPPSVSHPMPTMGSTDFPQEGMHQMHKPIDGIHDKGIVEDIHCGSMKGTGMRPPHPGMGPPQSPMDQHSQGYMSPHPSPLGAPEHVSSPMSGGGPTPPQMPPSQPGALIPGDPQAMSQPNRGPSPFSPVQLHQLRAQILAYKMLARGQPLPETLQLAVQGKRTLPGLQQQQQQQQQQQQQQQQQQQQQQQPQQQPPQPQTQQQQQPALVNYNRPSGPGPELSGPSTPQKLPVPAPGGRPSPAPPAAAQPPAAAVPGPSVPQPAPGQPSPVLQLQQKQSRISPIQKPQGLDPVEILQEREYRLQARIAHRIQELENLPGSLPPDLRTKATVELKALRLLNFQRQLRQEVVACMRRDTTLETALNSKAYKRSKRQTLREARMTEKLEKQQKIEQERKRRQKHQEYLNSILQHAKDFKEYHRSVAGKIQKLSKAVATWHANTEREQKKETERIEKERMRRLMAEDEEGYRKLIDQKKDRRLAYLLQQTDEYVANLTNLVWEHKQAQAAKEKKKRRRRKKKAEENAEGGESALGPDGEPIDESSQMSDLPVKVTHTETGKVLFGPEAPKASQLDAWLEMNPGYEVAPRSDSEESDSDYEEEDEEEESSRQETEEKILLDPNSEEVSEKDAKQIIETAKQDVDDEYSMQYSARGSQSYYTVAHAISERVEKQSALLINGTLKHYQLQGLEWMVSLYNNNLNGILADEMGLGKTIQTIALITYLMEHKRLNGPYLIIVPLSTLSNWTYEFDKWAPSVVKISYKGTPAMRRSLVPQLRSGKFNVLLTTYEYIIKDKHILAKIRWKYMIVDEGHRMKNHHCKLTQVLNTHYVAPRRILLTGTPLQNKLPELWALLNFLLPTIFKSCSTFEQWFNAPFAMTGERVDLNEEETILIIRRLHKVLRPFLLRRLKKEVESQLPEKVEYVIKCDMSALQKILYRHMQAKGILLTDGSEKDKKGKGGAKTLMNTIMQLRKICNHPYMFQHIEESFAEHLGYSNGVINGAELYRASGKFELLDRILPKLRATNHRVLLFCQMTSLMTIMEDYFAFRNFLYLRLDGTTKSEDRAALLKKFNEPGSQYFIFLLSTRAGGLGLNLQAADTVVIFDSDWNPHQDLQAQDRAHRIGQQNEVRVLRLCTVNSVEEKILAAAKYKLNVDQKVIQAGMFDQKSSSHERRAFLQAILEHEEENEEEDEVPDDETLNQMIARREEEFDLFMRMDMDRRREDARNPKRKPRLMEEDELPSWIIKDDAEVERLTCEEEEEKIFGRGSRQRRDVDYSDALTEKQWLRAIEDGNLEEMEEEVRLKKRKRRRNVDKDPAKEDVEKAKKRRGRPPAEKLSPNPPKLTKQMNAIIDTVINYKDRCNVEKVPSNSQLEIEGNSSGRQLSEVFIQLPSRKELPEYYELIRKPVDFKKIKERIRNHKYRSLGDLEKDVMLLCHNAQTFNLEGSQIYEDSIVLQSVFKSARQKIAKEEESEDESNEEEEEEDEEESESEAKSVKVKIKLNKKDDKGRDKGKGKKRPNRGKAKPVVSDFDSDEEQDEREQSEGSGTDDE
- METHOD_SUMMARY: MSD SMARCA2 degradation in A549 cell line
- Type: cell-based
- CONDITION_SUMMARY: A549 cells, 24 h, read-out: SMARCA2 MSD A549 degradation 24 h: Average external-Abs DC50
READOUT_TYPE: DC50

| COMPOUND | VALUE_OBSERVED |
| --- | --- |
| C#Cc1ccc([C@@H](CO)NC(=O)[C@@H]2C[C@@H](O)CN2C(=O)[C@@H](NC(=O)N2CC3(CC(N4CCC(c5cnc(N6CCc7[nH]c8nnc(-c9ccccc9O)cc8c7[C@H]6C)nc5)CC4)C3)C2)C(C)(C)C)nc1 [I-305] | > 0.1 µM |

In the following, a different compound is considered.
Noted for C#Cc1ccc(CNC(=O)[C@@H]2C[C@@H](O)CN2C(=O)[C@@H](NC(=O)CN2CC3(CC(N4CCC(N5CCC(N6CCN7c8cc(-c9ccccc9O)nnc8NC[C@H]7C6)CC5)CC4)C3)C2)C(C)(C)C)cc1 [I-214] : its DC50 reads > 0.1 µM

Where do these numbers come from? They come from patent US20250170248A1.
